target: NA of A/Vietnam/1203/2004 (H5N1) (Influenza A virus (A/Viet Nam/1203/2004(H5N1)), UniProt Q6DPL2)
Sequence (Q6DPL2 whole entry, looked up): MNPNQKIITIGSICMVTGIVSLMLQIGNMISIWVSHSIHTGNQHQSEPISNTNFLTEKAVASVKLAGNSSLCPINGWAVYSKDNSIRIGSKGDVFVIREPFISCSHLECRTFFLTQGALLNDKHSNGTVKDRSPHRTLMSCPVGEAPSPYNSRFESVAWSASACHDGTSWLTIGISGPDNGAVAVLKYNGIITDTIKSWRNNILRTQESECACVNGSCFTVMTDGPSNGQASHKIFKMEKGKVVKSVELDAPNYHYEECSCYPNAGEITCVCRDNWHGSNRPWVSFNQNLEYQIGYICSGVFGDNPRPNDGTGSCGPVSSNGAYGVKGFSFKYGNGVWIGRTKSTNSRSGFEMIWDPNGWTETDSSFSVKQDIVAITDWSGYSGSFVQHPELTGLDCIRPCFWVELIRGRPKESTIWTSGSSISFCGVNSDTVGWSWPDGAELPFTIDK
protocol: cell-based
pIC50: −log10 of the molar value.

[
  {
    "compound": "O=C(O)c1ccc(N2C(=O)CCC2(CO)CO)c(Nc2nnc(C3CCCCC3)[nH]2)c1 [compound 5]",
    "pIC50": "< 3.32"
  }
]
